Reported IC50 is given for each of the following compounds.
Target: recombinant human secreted phospholipase A2 (Homo sapiens)
Sequence (P14555 21-144): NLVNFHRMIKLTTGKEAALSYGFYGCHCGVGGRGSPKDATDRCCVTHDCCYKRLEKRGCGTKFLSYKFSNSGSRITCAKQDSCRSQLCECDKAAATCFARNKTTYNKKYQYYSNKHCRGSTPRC
Assay: sPLA2 Chromogenic Assay (Assay 1)
Conditions: diheptanoyl thio-PC substrate, pH 7.5, 40° C. for 30 minutes, absorbance at 405 nanometers
Report as a plain number; the unit nM is understood.

Example compounds with recorded IC50:
compound | recorded.result
CCc1c(C(=O)C(N)=O)c2c(OCC(=O)OC(C)OC(=O)OC)cccn2c1Cc1ccccc1-c1ccccc1 (stereo not shown) [Compound 59b] | 11
NC(=O)C(=O)c1c(C2CC2)c(Cc2cccc3ccccc23)n2cccc(OCC(=O)O)c12 [Compound 58j] | 23
CCc1c(CC(N)=O)c2c(OCC(=O)OCc3ccccc3)cccn2c1Cc1ccccc1-c1ccccc1 [Compound 21x] | 140

Could you now consider this next compound?
Exercise: Bench note: what IC50 did CCc1c(C(=O)C(N)=O)c2c(OCC(=O)OC)cccn2c1Cc1ccccc1Cc1ccccc1 [Compound 51j] show?
Solution: 20

* * *

Reported melting point is given for each of the following compounds.

compound | melting point
Cc1c(C(=O)C(N)=O)c2ccccn2c1Cc1ccccc1 | 198 to 199 °C
CCc1c(C(=O)C(=O)N(C)C)c2c(OCC(=O)O)cccn2c1Cc1ccccc1-c1ccccc1 [Compound 40f] | 208 to 209 °C

Exercise: Bench note: what melting point did CCCCc1ccc(Cc2c(CC)c(C(=O)C(N)=O)c3c(OCC(=O)OC)cccn23)cc1 [Compound 51s] show?
Solution: 174 to 176 °C

Exercise: Bench note: what melting point did Cc1c(C(=O)C(N)=O)c2c(OCc3ccccn3)cccn2c1Cc1ccccc1-c1ccccc1 [Compound 59n] show?
Solution: 196 to 197 °C

* * *

Target: recombinant human secreted phospholipase A2 (Homo sapiens)
Assay: sPLA2 Chromogenic Assay (Assay 1)
Conditions: diheptanoyl thio-PC substrate, pH 7.5, 40° C. for 30 minutes, absorbance at 405 nanometers
Label condition met when IC50 is strictly below 300 nM; otherwise label condition not met.

Here are 5 compounds together with their reported answers.
compound | category
CCc1c(C(=O)C(N)=O)c2c(OCC(=O)OCC(=O)OC(C)(C)C)cccn2c1Cc1ccccc1-c1ccccc1 [Compound 59d] | condition met
CCCCc1ccc(Cc2c(CC)c(C(=O)C(N)=O)c3c(OCC(=O)OC)cccn23)cc1 [Compound 51s] | condition met
CCc1c(C(=O)C(N)=O)c2c(OCC(=O)OCC(C)=O)cccn2c1Cc1ccccc1-c1ccccc1 [Compound 59k] | condition met
CCc1c(C(=O)C(N)=O)c2c(OCC(=O)OC)cccn2c1CC1CCCC1 [Compound 51c] | condition not met
CCOC(=O)CCCOc1ccn2c(Cc3ccccc3-c3ccccc3)c(CC)c(CC(N)=O)c2c1 [Compound 71a] | condition not met

Let us examine a further case.
Exercise: is_below(IC50, 300 nM) for CCc1c(C(=O)C(N)=O)c2c(OCC(=O)OC)cccn2c1Cc1cccc(OC)c1 [Compound 51m] ?
Solution: condition not met

* * *

Where a name gives a salt, the structure may show the parent alone.
metric.name: melting point

Example molecules with recorded melting point:
molecule | recorded.result
CCc1c(C(=O)C(N)=O)c2c(OCC(=O)O)cccn2c1Cc1cccc(-c2ccccc2)c1 [Compound 58g] | 241 to 244 °C
CCc1c(C(=O)C(N)=O)c2c(OCC(=O)OC)cccn2c1CC1CCCC1 [Compound 51c] | 158 to 159 °C
COC(=O)COc1cccn2c(Cc3ccccc3)c(C3CC3)c(C(=O)C(N)=O)c12 [Compound 51r] | 186 to 188 °C

Could you now consider this next molecule?
Exercise: Bench note: what melting point did CCCCCC1CCC(Cc2c(CC)c(C(=O)C(N)=O)c3c(OCC(=O)O)cccn23)CC1 (stereo not shown) (as salt: Na) [Compound 52o] show?
Solution: 224 to 225 °C
